assay: Pharmacokinetic study with Compound 111 (IV 5 mg/kg, PO 25 mg/kg); format: in vivo; conditions: male, beagle, dog, plasma, iv, 5 mg/kg, analyte Compound 111; IV 5 mg/kg Compound 111; fasted male beagle dogs; mean; read-out: Compound 111 PK Vz
Readout Type: Vd (L/kg)
Answer format: numeric, L/kg implied, no suffix.

### Prompt Value lookup for Vd; key = `CC(=O)[C@H]1CC[C@H]2[C@@H]3CC[C@H]4C[C@](C)(OC(=O)CN)CC[C@]4(C)[C@H]3CC[C@]12C`
### Response 9.47

---

Listing: SIF (% remain, 60 min) of selected compounds
test: Stability in simulated intestinal fluid (SIF); format: in vitro ADME; conditions: SIF with pancreatin pH 6.8, 37° C., 60 min
Expressed in %, but write only the number.

Solved entries (count: 3):
### Prompt If you can, please state the reported SIF (% remain, 60 min) value of CC(=O)[C@H]1CC[C@H]2[C@@H]3CC[C@H]4C[C@](C)(OC(=O)CNCC(=O)OC(C)(C)C)CC[C@]4(C)[C@H]3CC[C@]12C [Compound 109] .
### Response 92.9

### Prompt Looking for the measured SIF (% remain, 60 min) of CC(=O)[C@H]1CC[C@H]2[C@@H]3CC[C@H]4C[C@](C)(OCOC(=O)CN5CCOCC5)CC[C@]4(C)[C@H]3CC[C@]12C [Compound 504] , can you help?
### Response 49.0

### Prompt SIF (% remain, 60 min) for CC(=O)[C@H]1CC[C@H]2[C@@H]3CC[C@H]4C[C@](C)(OC(=O)COC(=O)C(C)(C)OC(=O)CN(CCO)CCO)CC[C@]4(C)[C@H]3CC[C@]12C [Compound 228] ?
### Response 1.7

Further cases:
### Prompt So what does the record say about SIF (% remain, 60 min) for CC(=O)[C@H]1CC[C@H]2[C@@H]3CC[C@H]4C[C@](C)(OC(=O)COC(=O)CN5CCOCC5)CC[C@]4(C)[C@H]3CC[C@]12C [Compound 200] ?
### Response 31

---

assay: Pharmacokinetic study with Compound 218 (IV 5 mg/kg, PO 25 mg/kg); assay type: in vivo; conditions: dog, plasma; analyte Compound 218; oral 25 mg/kg Compound 218; fasted male beagle dogs; mean; read-out: Compound 218 PK Cmax
Readout Type: Cmax (ng/mL)
Entry rule: numbers only, all in ng/mL.

### Prompt Recorded Cmax for `CC(=O)[C@H]1CC[C@H]2[C@@H]3CC[C@H]4C[C@](C)(OC(=O)COC(=O)C(C)(C)N)CC[C@]4(C)[C@H]3CC[C@]12C` , please?
### Response 89.8

---

Assay: Measured solubility in buffer, LC-MS/MS
Format: physicochemical
Settings: buffer, aqueous buffer, thermodynamic from solid; pH 2.0, room temperature; read-out: Solubility pH 2.0
Description: […] The mixture was vortexed and a magnetic stirring bar was subsequently added to the vial. The vial was placed on a magnetic stirrer with constant stirring for 16-24 hours at room temperature. The pH of the top layer solution was measured. Subsequently, 200 μL of the top layer solution was placed in a 1.5 mL microcentrifuge tube and centrifuged at 18,000 g for 10 min at room temperature. A 10 μL aliquot of supernatant was added to 990 μL of methanol:water (1/:1, v/v) and vortexed. […]
solubility values for the molecules below.
Number only, in µg/mL; omit the unit.

Some entries whose results are on file:
### Prompt Which solubility value belongs to `CC(=O)[C@H]1CC[C@H]2[C@@H]3CC[C@H]4C[C@](C)(OC(=O)CNC(C)(C)C(=O)O)CC[C@]4(C)[C@H]3CC[C@]12C` ?
### Response 39

### Prompt Look up solubility for this molecule: `CC(=O)[C@H]1CC[C@H]2[C@@H]3CC[C@H]4C[C@](C)(OC(=O)CN)CC[C@]4(C)[C@H]3CC[C@]12C`
### Response 1520

### Prompt # input molecule: `CC(=O)OCCN(CCOC(C)=O)CC(=O)OC(C)(C)C(=O)OCC(=O)O[C@]1(C)CC[C@@]2(C)[C@@H](CC[C@@H]3[C@@H]2CC[C@]2(C)[C@@H](C(C)=O)CC[C@@H]32)C1` ; wanted: its solubility
### Response 22

### Prompt Query (molecule): `CC(=O)[C@H]1CC[C@H]2[C@@H]3CC[C@H]4C[C@](C)(OC(=O)CO)CC[C@]4(C)[C@H]3CC[C@]12C` ; field requested: solubility
### Response 36

### Prompt Which value of solubility has been reported for `CC(=O)[C@H]1CC[C@H]2[C@@H]3CC[C@H]4C[C@](C)(OC(=O)COC(=O)CN5CCOCC5)CC[C@]4(C)[C@H]3CC[C@]12C` in the records?
### Response 11800

New cases:
### Prompt Can you share its solubility? I mean this molecule: `CC(=O)[C@H]1CC[C@H]2[C@@H]3CC[C@H]4C[C@](C)(O)CC[C@]4(C)[C@H]3CC[C@]12C`
### Response 2

### Prompt I'd like to know its solubility. The molecule in question is `CC(=O)[C@H]1CC[C@H]2[C@@H]3CC[C@H]4C[C@](C)(OC(=O)COC(=O)C(C)(C)N)CC[C@]4(C)[C@H]3CC[C@]12C`
### Response 16900
